Assignment: determine reported Phage binding ELISA Backgroud signal for the given substances.
System: anti-CD28 scFv
procedureText: Phage binding ELISA (panning) of clonal phage on anti-CD28 scFv, with or without CD28 soluble protein
conditionContext: clonal phage supernatant; background signal
Experimental: Clonal phage were harvested as crude supernatants and screened via standard enzyme linked immunosorbent assays (ELISAs). […] Prior to the addition of clonal phage, wells were incubated with blocking buffer and CD28 soluble protein or blocking buffer alone. Without washing or aspirating, clonal phage supernatants were then added to the wells and incubated for a short time. Wells were then washed followed by detection of bound phage using a horse radish peroxidase conjugated anti-M13 antibody. […]
Numbers only.

substance="Phage-167 (MSWCPQDLWHVCFN)" readouttype="Phage binding ELISA Backgroud signal" observedvalue=0.095
substance="Phage-332 (IDWCPRALWDACLA)" readouttype="Phage binding ELISA Backgroud signal" observedvalue=0.269
substance="Phage-187 (IGKLTLCLNADLVI)" readouttype="Phage binding ELISA Backgroud signal" observedvalue=0.274
substance="Phage-249 (MDWCPSDMWAHCYN)" readouttype="Phage binding ELISA Backgroud signal" observedvalue=0.191

Next:
Which measured Phage binding ELISA Backgroud signal value corresponds to Phage-210 (MDWCPRDMWFECFA) ?
0.076
